testDescription: Toxicity liver stage against HepG2, at 10uM
Format: cell-based
Design: test concentration 10 uM, cell line HepG2-A16-CD81EGFP
experimentalParameters: human, HepG2-A16-CD81EGFP cells; read-out: INHIBITION
measurementLabel: cytotoxicity at 10 µM

{"columns": ["compound", "cytotoxicity at 10 µM"],
 "data": [
  ["COCc1cc(CNCc2c(C)n(CC(N)=O)c3ccccc23)n[nH]1", "-0.31%"],
  ["CC(=O)c1c(C)nn(S(=O)(=O)c2ccc(C)c(C)c2)c1C", "-8.46%"],
  ["CC(C)OCCOCc1cccc(NC(=O)NCc2ccccn2)c1", "-2.35%"],
  ["Cc1nc(C2CCCN2C(=O)c2ccc3c(c2)nc(C)n3C)no1 (centres undefined)", "-9.62%"],
  ["COC(=O)CC(NC(=O)c1cccc(N2CCCC2=O)c1)C(=O)OC (centres undefined)", "-55.6%"],
  ["CNc1cccc(C2CCCN(C(=O)Cc3ccccc3)C2)n1 (centres undefined)", "-6.5%"]
]}

Looking up O=C1CC(c2ccc(Cl)c(Cl)c2)c2c(n3ccsc3nc2=O)N1 (centres undefined) , I see its cytotoxicity at 10 µM listed as -0.839%

Looking up Cc1cc(CN(CCCO)c2ccccc2)on1 , I see its cytotoxicity at 10 µM listed as -4.91%

Looking up CS(=O)(=O)c1cc(Cl)cnc1C1CCN(C(=O)C2CC2)CC1 , I see its cytotoxicity at 10 µM listed as 8.21%

Looking up O=C(Nc1ccccc1)N1CCn2nnc(COc3cccnc3)c2C1 , I see its cytotoxicity at 10 µM listed as -2.03%

Looking up Cc1ccc(C(=O)N2CCN(Cc3nc(C(C)C)no3)CC2)c(=O)[nH]1 , I see its cytotoxicity at 10 µM listed as -7.67%

Looking up COc1c(CNCc2cccc(Cn3cncn3)c2)c(C)nn1C , I see its cytotoxicity at 10 µM listed as -11.2%

Looking up CN1CCCc2cc(CNC(=O)c3ccc(-n4cnnc4)cc3)ccc21 , I see its cytotoxicity at 10 µM listed as -4.9%

Looking up CCc1nc(CN(C)C(=O)CSC)no1 , I see its cytotoxicity at 10 µM listed as 2.25%

Looking up CCOc1cc(C=Cc2ncc(C(=O)NC)s2)ccc1OC , I see its cytotoxicity at 10 µM listed as -0.58%

Looking up CCN(CC)S(=O)(=O)c1ccc(OC)c(NC(=O)CSC)c1 , I see its cytotoxicity at 10 µM listed as -10%

Looking up Cc1nc(COCc2cnc3n2CCN(C2CCC2)C3C)cs1 (centres undefined) , I see its cytotoxicity at 10 µM listed as -3.82%

Looking up O=C(CC1[C@H]2CN(c3ncccn3)C[C@@H]12)Nc1cccnc1 (some centres undefined) , I see its cytotoxicity at 10 µM listed as -1.55%

Looking up Cc1cccc(Nc2cc(C3CCCN(CC(N)=O)C3)ccn2)n1 (centres undefined) , I see its cytotoxicity at 10 µM listed as 12.3%

Looking up Cc1ccc(S(=O)(=O)N[C@H](CO)C(C)C)cc1N(C)C , I see its cytotoxicity at 10 µM listed as -5.53%

Looking up OCCn1ncc2c1CN(CC1CCOc3ccccc3C1)C2 (centres undefined) , I see its cytotoxicity at 10 µM listed as -5.35%

Looking up Cc1nc(CNCc2ccc(OC34CCCN(CC3)C4)cc2)n[nH]1 (centres undefined) , I see its cytotoxicity at 10 µM listed as 1.01%

Looking up CC(C)OCc1ncn2c1CN(CC1CC1)CCC2 , I see its cytotoxicity at 10 µM listed as -68.9%

Looking up CC(C)(C)C(=O)N1CCCC1c1ccc(C(=O)N2CCOCC2)s1 (centres undefined) , I see its cytotoxicity at 10 µM listed as -145%

* * *

testDescription: Toxicity liver stage against HepG2, at 10uM
Assay type: cell-based
Set-up: test concentration 10 uM, cell line HepG2-A16-CD81EGFP
experimentalParameters: human, HepG2-A16-CD81EGFP cells; read-out: INHIBITION
cytotoxicity at 10 µM overview
Number in %, nothing else.

{"columns": ["compound", "cytotoxicity at 10 µM / %"],
 "data": [
  ["COCCC(=O)N1CCCN(Cc2nccn2C(C)C)CC1", -10.1],
  ["N#CC(NC(=O)CC(F)(F)F)c1ccsc1 (configuration not stated)", 7.61],
  ["Cc1cccc(CN2Cc3ccnn3CC(COCC3CC3)C2)n1 (configuration not stated)", 2.13],
  ["CO[C@H]1C[C@@H](O)C12CCN(C(=O)NCc1ccco1)CC2", -2.04],
  ["CCS(=O)(=O)c1ccc(N2CCC(NC(=O)C(C)SC)CC2)cc1 (configuration not stated)", 7.99]
]}

Moving on to another compound below.
Looking up O=C(c1cscn1)N1CCC2(CC1)CN(c1ccccn1)CCO2 , I see its cytotoxicity at 10 µM listed as -71

* * *

testDescription: Toxicity liver stage against HepG2, at 10uM
Type: cell-based
Design: test concentration 10 uM, cell line HepG2-A16-CD81EGFP
experimentalParameters: human, HepG2-A16-CD81EGFP cells; read-out: INHIBITION
cytotoxicity at 10 µM overview

Worked cases, cytotoxicity at 10 µM given:
{"columns": ["compound", "cytotoxicity at 10 µM"],
 "data": [
  ["COc1c(CNCc2ccccc2Cn2cncn2)c(C)nn1C", "1.56%"],
  ["COc1ccc(-n2nnc(C(=O)NC(C)C)c2C2CC2)cc1", "-14.7%"],
  ["CCOc1cc(-c2cc(=O)n3c(n2)CCCCC3)ccc1O", "1.32%"],
  ["CCC(C)NC(=O)c1nnn(-c2cccc3c2CCN(C)C3)c1C (configuration not stated)", "-6.39%"]
]}

Looking up O=S(=O)(CCCN1CCCC1Cn1cncn1)c1ccccc1 (configuration not stated) , I see its cytotoxicity at 10 µM listed as -7.64%

Looking up CC(C)c1ccc(C(CN)N2CCc3sccc3C2)cc1 (configuration not stated) , I see its cytotoxicity at 10 µM listed as 1.66%

Looking up COc1ccc(C(O)C(=O)N2CCC(c3nccn3C(C)C)CC2)cc1 (configuration not stated) , I see its cytotoxicity at 10 µM listed as -0.355%

Looking up Cc1ccc(C(=O)O)cc1CNC(=O)CN1CC(C)(C)[C@@](C)(O)C1 , I see its cytotoxicity at 10 µM listed as -6.03%

Looking up O=S(=O)(c1ccc(F)cc1)N1CCCC(c2nccs2)C1 (configuration not stated) , I see its cytotoxicity at 10 µM listed as -6.74%

Looking up N#CC1(C(=O)N2CCOC(c3ccc(F)cc3)C2)CCCCC1 (configuration not stated) , I see its cytotoxicity at 10 µM listed as 3.85%

Looking up CCc1noc(CNc2ccc(C(=O)N3CCCC3)cc2C)n1 , I see its cytotoxicity at 10 µM listed as -8.25%

Looking up CN(C)c1cc(C2CCCN2C(=O)c2noc3c2CCCC3)ccn1 (configuration not stated) , I see its cytotoxicity at 10 µM listed as 9.13%

* * *

testDescription: Toxicity liver stage against HepG2, at 10uM
Assay type: cell-based
Set-up: test concentration 10 uM, cell line HepG2-A16-CD81EGFP
experimentalParameters: human, HepG2-A16-CD81EGFP cells; read-out: INHIBITION
cytotoxicity at 10 µM overview
Number in %, nothing else.

Worked cases, cytotoxicity at 10 µM given:
{"columns": ["compound", "cytotoxicity at 10 µM, %"],
 "data": [
  ["Cc1nn(C)c(C)c1C(=O)NCc1cccnc1OC1CCCC1", -0.171],
  ["CCC(OC)C(=O)NCC1CCN(c2cnn(C)c(=O)c2)CC1 (stereo unspecified)", 7.35],
  ["CN(CCCNC(=O)c1ccccc1OCC(N)=O)CC(F)(F)F", -7.53],
  ["CC(C)c1noc(CN2CCN(CCO)CC2)n1", -5.57],
  ["c1cc(CNCC2Cn3nncc3CO2)cs1 (stereo unspecified)", 6.13]
]}

Moving on to another compound below.
Looking up CN(Cc1ccoc1)C(=O)C1CC(=O)N(Cc2ccncc2)C1 (stereo unspecified) , I see its cytotoxicity at 10 µM listed as -0.766

* * *

testDescription: Toxicity liver stage against HepG2, at 10uM
Format: cell-based
Design: test concentration 10 uM, cell line HepG2-A16-CD81EGFP
experimentalParameters: human, HepG2-A16-CD81EGFP cells; read-out: INHIBITION
cytotoxicity at 10 µM overview
Number in %, nothing else.

Worked cases, cytotoxicity at 10 µM given:
{"columns": ["compound", "cytotoxicity at 10 µM / %"],
 "data": [
  ["CCOC(=O)C1CCCCN1Cc1c[nH]nc1-c1ccc(F)cc1F (configuration not stated)", -0.545],
  ["CC(Cc1c(F)cccc1F)NC(=O)Nc1cnn(CC(N)=O)c1 (configuration not stated)", -2.96],
  ["O=C1N(Cc2cccnc2)CCC12CCCNC2 (configuration not stated)", 3.52],
  ["Cc1cc(C(=O)N2C[C@@H]3COC[C@]3(c3nnc(C4CC4)o3)C2)on1", -10],
  ["Cn1nccc1C1CCN(CC(=O)NCC2CC2)CC1", -9.38]
]}

Looking up COc1ncccc1CNC(=O)NC(C)Cn1cccn1 (configuration not stated) , I see its cytotoxicity at 10 µM listed as -12.5

Looking up O=C(O)c1csc(S(=O)(=O)Nc2c(F)cccc2-n2cccn2)c1 , I see its cytotoxicity at 10 µM listed as -7.32

Looking up O=C(CNc1cc(-c2ccccc2)nc2ccnn12)NC1CC1 , I see its cytotoxicity at 10 µM listed as -10.5

Looking up CC(C)N(C(=O)N1CCn2cncc2C1)C(C)C , I see its cytotoxicity at 10 µM listed as -12.3

Looking up Cn1cc(-c2nc(CN3CCOC(Cn4cncn4)C3)cs2)cn1 (configuration not stated) , I see its cytotoxicity at 10 µM listed as -1.41

Looking up COc1cccc(C(C)N2CCN(S(=O)(=O)CCCF)CC2)c1 (configuration not stated) , I see its cytotoxicity at 10 µM listed as 2.5

Looking up CCC(NC1CCN(C(=O)c2ccccc2)CC1)c1cccs1 (configuration not stated) , I see its cytotoxicity at 10 µM listed as -2.62
